Values from ChEMBL document CHEMBL1136541

tested_system: Serine protease 1 (Bos taurus, UniProt P00760)
Sequence (P00760 whole entry): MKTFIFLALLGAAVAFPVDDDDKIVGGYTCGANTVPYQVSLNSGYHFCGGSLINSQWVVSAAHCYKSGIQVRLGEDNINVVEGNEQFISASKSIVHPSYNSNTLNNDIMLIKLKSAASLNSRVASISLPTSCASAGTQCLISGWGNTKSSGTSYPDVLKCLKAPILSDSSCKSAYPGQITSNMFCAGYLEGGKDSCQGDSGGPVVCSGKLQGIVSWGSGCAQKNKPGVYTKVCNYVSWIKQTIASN
measurement_type: IC50 (nM)

a. Cn1c(CNC(=O)[C@@H]2C=CCN2C(=O)[C@@H](CC2CCCCC2)NCC(=O)O)ccc1C(=N)N
b. Cn1cc(CNC(=O)[C@@H]2C=CCN2C(=O)[C@@H](CC2CCCCC2)NCC(=O)O)cc1C(=N)N
I'm curious whether a or b has the smaller IC50 number. Which is it? Write down the label of the entry you select. a
